biological target: Ubiquitin carboxyl-terminal hydrolase 30 (Homo sapiens); assay: inhibitors of ubiquitin-specific protease 30 deubiquitylating enzyme, concentration dependence, in vitro biochemical, validation of primary hits (AID 1645865); settings: purified USP30, Ub-rhodamine cleavage, fluorescence, 2 h
Activity calls are given as the source filed them.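 The calls were made as follows: active = maximal inhibition of the USP30 enzyme reaching 30% or more across the dose series; inactive = the rest.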
ASSAY_ENDPOINT: IC50

CCN(CC)C(=O)c1sc(NC(=O)/C=C/c2c(F)cccc2Cl)c(C#N)c1C	1.89 µM
N[C@@H](Cc1ccccc1)C(=O)N1CCC2(CC1)CN(C(=O)c1ccc(Cl)cc1)CCO2	> 50 µM (inactive)
Cc1ccc(N=Cc2sc(O)c3ccccc23)c(C)c1	> 50 µM (inactive)
COc1ccc(-c2cc3nc(C)cc(Nc4ccc(F)cc4)n3n2)cc1OC	> 50 µM (inactive)

Request: So what's the measured IC50 for this one? COc1cccc(N2C(=O)N(CC(=O)NCc3ccc(Cl)cc3)c3ccccc3S2(=O)=O)c1
Response: 17 µM

Values were extracted from PubChem BioAssay AID1645865.
